test-name: Cytotoxicity against mouse J774 cells assessed as cell viability after 72 hrs by Alamar Blue assay
Format: cell-based
# CC50 at 72 h listing for each entry below

Can you share its CC50 at 72 h? I mean this compound: CNC(=S)N/N=C(\C)c1ccc(Cl)c(Cl)c1 > 100 µM

Which value of CC50 at 72 h has been reported for CN(C)c1ccc(C(=C2C=CC(=[N+](C)C)C=C2)c2ccc(N(C)C)cc2)cc1 [GENTIAN VIOLET] in the records? 0.45 µM

---

Recorded measurements of CC50 at 72 h, one per entry
test-name: Cytotoxicity against mouse J774 cells assessed as cell viability after 72 hrs by Alamar Blue assay
Assay type: cell-based

# count of solved cases: 5
>  <compound>
CCC1S/C(=N/N=C(\C)c2ccc(Cl)c(Cl)c2)N(c2ccccc2)C1=O (centres undefined)

>  <CC50 at 72 h>
23.3 µM

$$$$
>  <compound>
C/C(=N\N=C1\SC(C(C)C)C(=O)N1c1ccccc1)c1ccc(Cl)c(Cl)c1 (centres undefined)

>  <CC50 at 72 h>
> 100 µM

$$$$
>  <compound>
C/C(=N\N=C(\N)S)c1ccc(Cl)c(Cl)c1

>  <CC50 at 72 h>
13.4 µM

$$$$
>  <compound>
C/C(=N\N=C1/NC(=O)C(C(C)C)S1)c1ccc(Cl)c(Cl)c1 (centres undefined)

>  <CC50 at 72 h>
> 100 µM

$$$$
>  <compound>
C/C(=N\N=C1\SC(C(C)C)C(=O)N1C)c1ccc(Cl)c(Cl)c1 (centres undefined)

>  <CC50 at 72 h>
> 100 µM

$$$$

Query (compound): C/C(=N\NC(=S)Nc1ccccc1)c1ccc(Cl)c(Cl)c1 ; field requested: CC50 at 72 h > 100 µM

So what does the record say about CC50 at 72 h for O=C(Cn1ccnc1[N+](=O)[O-])NCc1ccccc1 [BENZNIDAZOLE] ? > 100 µM

Form field: reported CC50 at 72 h of C/C(=N\N=C1/NC(=O)C(C)S1)c1ccc(Cl)c(Cl)c1 (centres undefined) > 100 µM

Look at this compound and give its reported CC50 at 72 h. C/C(=N\N=C1\SC(C)C(=O)N1C)c1ccc(Cl)c(Cl)c1 (centres undefined) > 100 µM

---

test-name: Cytotoxicity against mouse J774 cells assessed as cell viability after 72 hrs by Alamar Blue assay
Type: cell-based
Reported CC50 at 72 h by item:
Please state the figure in µM; there is no need to write the unit.

Sample answers from the record:
>  <compound>
CCC1S/C(=N/N=C(\C)c2ccc(Cl)c(Cl)c2)NC1=O (stereo not drawn)

>  <CC50 at 72 h, µM>
76.7

$$$$
>  <compound>
C/C(=N\N=C1/NC(=O)C(c2ccccc2)S1)c1ccc(Cl)c(Cl)c1 (stereo not drawn)

>  <CC50 at 72 h, µM>
96.9

$$$$

# lookup: CC50 at 72 h of C/C(=N\N=C1\SC(c2ccccc2)C(=O)N1C)c1ccc(Cl)c(Cl)c1 (stereo not drawn) 97.6
